Tested on: Human immunodeficiency virus 1
Assay: Antiviral activity against HIV1 IIIB infected in human C8166 cells assessed as reduction in virus-induced cytopathic effect measured after 3 days by Syncytia assays
Assay type: functional, organism-based
Conditions: Human immunodeficiency virus 1, IIIB, C8166, 72 h
recordedEndpoint: IC50 (nM)
Report only the number, with the unit nM understood.

What IC50 value was documented for this compound, O=C(O)c1cc2c([nH]c3ccccc32)c(-c2ccc(CO)o2)n1 [FLAZINE] ? 2370

###

Test system: MDA-MB-231
Test: Cytotoxicity against human MDA-MB-231 cells
Assay type: functional, cell-based
recordedEndpoint: IC50
// unit must come after the numeric part

What is its IC50 for MDA-MB-231? Entry: CC(C)CC(N)c1nccc2c1[nH]c1cc(Br)ccc12 (stereo unspecified) 2100 nM
